B1: Azoarcus group I ribozyme (parent)
chain: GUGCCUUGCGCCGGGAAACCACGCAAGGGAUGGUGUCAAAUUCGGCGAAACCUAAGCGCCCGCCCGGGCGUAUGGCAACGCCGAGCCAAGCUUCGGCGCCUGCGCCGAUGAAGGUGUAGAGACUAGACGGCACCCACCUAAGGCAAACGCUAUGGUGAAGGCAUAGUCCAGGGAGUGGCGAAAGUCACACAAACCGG

Variants of: B1
Assay: reverse-splicing fitness (ratio to wild type); higher = more active; in vitro selection; Mg2+ level not given
measured-parameter: reverse-splicing fitness

Here are 3 variants together with their reported answers.
1. C82A A111G A120U A145G C150U C169U U176A : 0.00523
2. C82A A111G A120G A145C C150G C169U U176C : 0.0141
3. C82U A111U A120G A145U C150G C169A U176G : 0.00439

Respectfully, I request reverse-splicing fitness for each entry included below.
1. C82A A111G A120U A145C C150G C169G U176A
2. C82G A111G A120G A145G C150A C169G

Completion:
1: 0.00289; 2: 0.0102

Respectfully, I request reverse-splicing fitness for each entry included below.
1. A111G A120U A145G C150A U176A
2. C82A A120U A145C C150A C169G
3. C82A A111G A120U A145G C150G C169G U176C
4. C82G A111C A145U C150U C169G U176G
5. C82U A111C C150U C169G U176C
6. C82G A120C A145G C150A C169U U176G
7. A120G A145C C150U U176A
8. C82U A111G A120U C150U C169U

Completion:
[0.0506, 0.00223, 0.00646, 0.00868, 0.0161, 0.00589, 0.0853, 0.00388]
